Tested on: KSHV-infected DMVEC
Experiment: Inhibition of KSHV-induced spindle cell formation by PMO antisense gene silencing
Format: cell-based, human
Settings: gene-specific PMO antisense
assayReadout: Phenotype Inhibition (inhibition of spindle cell formation)

* AGCATGTCACGCACAGTGGCCTCAT (all phosphorodiamidate morpholino (PMO)) [ANGPTL2] | Intermediate
* TGAATAAGCAACAATGTAGCTTCAT (all phosphorodiamidate morpholino (PMO)) [MFAP3] | None
* GGCAGCCCACTCTCTCGGCAGCATG (all phosphorodiamidate morpholino (PMO)) [IGFBP2] | Full
* GAAGAGATGCAGATCCATCGTTCTG (all phosphorodiamidate morpholino (PMO)) [RDC-1] | Full
* GGGTCTCCTCGGATCAGGCGCG (all phosphorodiamidate morpholino (PMO)) [INSR] | Intermediate
* AGCTCGTGCTCTGCACACTCTGCAT (all phosphorodiamidate morpholino (PMO)) [NOV] | Full
* TTAACTCCCATCCTACGTTTAGTCA (all phosphorodiamidate morpholino (PMO)) [Neuritin] | Full

* * *

Tested on: KSHV-infected DMVEC
Assay: Inhibition of KSHV-induced spindle cell formation by PMO antisense gene silencing
Format: cell-based, human
Conditions: gene-specific PMO antisense
assayReadout: Phenotype Inhibition (inhibition of spindle cell formation)

- CGCCTCTCATCGCGGTAGCTGCG (all phosphorodiamidate morpholino (PMO); further chemistry not fully specified) [KIT]: Full
- AGCTTCATGTTGGAGGTGTTCG (all phosphorodiamidate morpholino (PMO)) [IFACTOR]: None
- GGAGCACGGTCCAGGCGAAGCGCAT (all phosphorodiamidate morpholino (PMO)) [LOX]: Full

* * *

Test system: KSHV-infected DMVEC
Assay: Inhibition of KSHV-induced spindle cell formation by PMO antisense gene silencing
Type: cell-based, human
Details: gene-specific PMO antisense
assayReadout: Extent of PMO-induced Inhibition of Spindle Cell Formation

* GTCAGTTTACTCATGTCATCTATTG (all phosphorodiamidate morpholino (PMO)) [KIAA0367] | intermediate
* GGCTCCATCTTGGGCTCTGGGCTCC [FLJ14103] | full
* GAAGAGATGCAGATCCATCGTTCTG (all phosphorodiamidate morpholino (PMO)) [RDC-1] | full
* AGCATGTCACGCACAGTGGCCTCAT (all phosphorodiamidate morpholino (PMO)) [ANGPTL2] | intermediate
* GCCGAGGACATTGGGGAGGGAGGCG (all phosphorodiamidate morpholino (PMO)) [LMO2] | none
* TGAATAAGCAACAATGTAGCTTCAT (all phosphorodiamidate morpholino (PMO)) [MFAP3] | none
* AGCTCGTGCTCTGCACACTCTGCAT (all phosphorodiamidate morpholino (PMO)) [NOV] | full
* GGGTCTCCTCGGATCAGGCGCG (all phosphorodiamidate morpholino (PMO)) [INSR] | intermediate
* AGCTTCATGTTGGAGGTGTTCG (all phosphorodiamidate morpholino (PMO)) [IFACTOR] | none
* CGCCTCTCATCGCGGTAGCTGCG (all phosphorodiamidate morpholino (PMO); further chemistry not fully specified) [KIT] | full
* GGAGCACGGTCCAGGCGAAGCGCAT (all phosphorodiamidate morpholino (PMO)) [LOX] | full
* GGCAGCCCACTCTCTCGGCAGCATG (all phosphorodiamidate morpholino (PMO)) [IGFBP2] | full
* TTAACTCCCATCCTACGTTTAGTCA (all phosphorodiamidate morpholino (PMO)) [Neuritin] | full
